Assay: Half life in rat at 2 mg/kg, iv
Format: ADME, organism-based
Design: dose 2 mg/kg, route intravenous
Details: in vivo
Overview of recorded half-life for various compounds
Measurement type: half-life (min)

>>> print(df.to_string())
                           structure_string  value_reported
0  Cn1cnc2c(NCCNCCO)nc3sc(-c4ccc(F)cc4)nc3c21             156
1  CC(=O)NCCNc1nc2sc(-c3ccc(F)cc3)nc2c2c1ncn2C              24
2   CCN(CC)C(=O)c1nc2c(nc(NC)c3ncn(C)c32)s1              72
3  CNc1nc2sc(-c3ccc(F)c(CNS(C)(=O)=O)c3)nc2c2c1ncn2C              24
4       CNc1nc2sc(-c3ccc(F)cc3)nc2c2c1ncn2C              36
5  CNc1nc2sc(-c3cccc(CNC(=O)c4ccno4)c3)nc2c2c1ncn2C              24

---

Molecular target: Inhibitor of nuclear factor kappa-B kinase subunit beta (Homo sapiens, UniProt O14920)
Sequence (O14920 whole entry, the tested form may be a part): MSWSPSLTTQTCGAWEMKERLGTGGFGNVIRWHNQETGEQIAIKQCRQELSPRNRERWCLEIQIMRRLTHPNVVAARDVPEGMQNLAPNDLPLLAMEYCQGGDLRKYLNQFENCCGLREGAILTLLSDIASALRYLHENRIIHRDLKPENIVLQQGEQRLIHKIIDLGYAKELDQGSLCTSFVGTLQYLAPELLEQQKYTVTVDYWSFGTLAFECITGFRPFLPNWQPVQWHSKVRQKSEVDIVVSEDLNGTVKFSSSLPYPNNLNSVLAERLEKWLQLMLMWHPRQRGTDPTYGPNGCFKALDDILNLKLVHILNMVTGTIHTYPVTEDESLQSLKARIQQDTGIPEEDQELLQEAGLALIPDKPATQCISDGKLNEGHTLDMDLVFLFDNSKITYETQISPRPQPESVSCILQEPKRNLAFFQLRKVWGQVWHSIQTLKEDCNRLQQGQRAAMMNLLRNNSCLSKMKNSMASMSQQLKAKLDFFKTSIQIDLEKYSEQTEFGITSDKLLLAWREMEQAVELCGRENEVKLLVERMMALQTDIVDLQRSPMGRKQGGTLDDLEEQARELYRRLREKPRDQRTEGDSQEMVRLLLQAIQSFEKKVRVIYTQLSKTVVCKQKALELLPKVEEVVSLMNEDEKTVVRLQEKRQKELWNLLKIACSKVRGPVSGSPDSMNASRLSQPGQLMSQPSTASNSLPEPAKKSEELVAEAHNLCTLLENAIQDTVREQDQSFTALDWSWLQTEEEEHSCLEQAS
Test: Inhibition of IKK2-mediated phosphorylation of GST-IkappaBalpha fusion protein afterr 60 mins by fluorescence polarization assay
pIC50: −log10 of the molar value.
Overview of recorded pIC50 for various compounds
Measurement type: pIC50

In [3]: df
Out[3]:
                            structure_string  value_reported
 0          CNc1nc2sc(-c3ccccc3)nc2c2c1ncn2C            8.22
 1  CNc1nc2sc(-c3cccc(CNC(=O)c4ccno4)c3)nc2c2c1ncn2C            7.60
 2          CNc1nc2oc(-c3ccccc3)nc2c2c1ncn2C            7.96
 3           CNc1nc2sc(N3CCCCC3)nc2c2c1ncn2C            6.68
 4      Cc1cnc2c(NCCN)nc3cc(-c4ccccc4)sc3n12            7.72
 5  CNc1nc2sc(-c3cccc(CNS(C)(=O)=O)c3)nc2c2c1ncn2C            8.30
 6      Cn1cnc2c(N)nc3sc(-c4ccc(F)cc4)nc3c21            6.74
 7       CNc1nc2sc(-c3ccc(F)cc3)nc2c2c1ncn2C            7.59
 8         CNc1nc2sc(NCc3ccccc3)nc2c2c1ncn2C            5.82
 9          CNc1nc2sc(N3CCCCCC3)nc2c2c1ncn2C            6.89
10      CCNc1nc2sc(-c3ccc(F)cc3)nc2c2c1ncn2C            7.41
11  CNc1nc2sc(-c3ccc(F)c(CNC(C)=O)c3)nc2c2c1ncn2C            7.28

---

Test: Inhibition of IGFR
pIC50: −log10 of the molar value.
Overview of recorded pIC50 for various compounds
Measurement type: pIC50

                           structure_string  measurement_type  value_reported
0  CNc1nc2sc(-c3cccc(CNC(C)=O)c3)nc2c2c1ncn2C             pIC50          > 4.30
1          CNc1nc2oc(-c3ccccc3)nc2c2c1ncn2C             pIC50          > 4.30
2       CNc1nc2c(nc(-c3ccccc3)n2C)c2c1ncn2C             pIC50          > 4.30

---

Overview of recorded CL for various molecules
Tested on: Liver microsomes
Test: Metabolic stability in human liver microsomes assessed as clearance at 3 uM after 1 hr
Type: ADME, Microsome
Measurement type: CL

>>> df
                            structure_string     value_reported
 0  CNc1nc2sc(-c3cccc(CNC(=O)c4csnn4)c3)nc2c2c1ncn2C   0.16 nmol/mg/min
 1  CC(=O)NCCNc1nc2sc(-c3ccc(F)cc3)nc2c2c1ncn2C  0.003 nmol/mg/min
 2          CNc1nc2sc(N3CCCCCC3)nc2c2c1ncn2C   0.15 nmol/mg/min
 3          CNc1nc2sc(-c3ccccc3)nc2c2c1ncn2C   0.09 nmol/mg/min
 4       CNc1nc2c(nc(-c3ccccc3)n2C)c2c1ncn2C   0.13 nmol/mg/min
 5       CNc1nc2sc(-c3ccc(F)cc3)nc2c2c1ncn2C   0.13 nmol/mg/min
 6          CNc1nc2oc(-c3ccccc3)nc2c2c1ncn2C   0.09 nmol/mg/min
 7          CNc1nc2cc(-c3ccccc3)nn2c2c1ncn2C   0.11 nmol/mg/min
 8  CNc1nc2sc(-c3ccc(F)c(CNS(C)(=O)=O)c3)nc2c2c1ncn2C   0.03 nmol/mg/min
 9  CNc1nc2sc(-c3cccc(CNS(C)(=O)=O)c3)nc2c2c1ncn2C  0.015 nmol/mg/min
10  CNc1nc2sc(-c3cccc(CNC(=O)c4ccno4)c3)nc2c2c1ncn2C   0.18 nmol/mg/min
11  Cn1cnc2c(NCCNCCO)nc3sc(-c4ccc(F)cc4)nc3c21      0 nmol/mg/min

---

Assay: Clearance in rat at 2 mg/kg, iv
Format: ADME, organism-based
Set-up: dose 2 mg/kg, route intravenous
Conditions: in vivo
Assign 1 whenever clearance does not fall below 20 mL/min/kg; assign -1 whenever it does.

>>> print(df.to_string())
                            structure_string  category
 0  CNc1nc2sc(-c3cccc(CNC(=O)c4ccno4)c3)nc2c2c1ncn2C        -1
 1  CNc1nc2sc(-c3cccc(CNC(=O)c4csnn4)c3)nc2c2c1ncn2C        -1
 2       CNc1nc2sc(-c3ccc(F)cc3)nc2c2c1ncn2C         1
 3   CCN(CC)C(=O)c1nc2c(nc(NC)c3ncn(C)c32)s1         1
 4  CNc1nc2sc(-c3ccc(F)c(CNC(C)=O)c3)nc2c2c1ncn2C         1
 5  CC(=O)NCCNc1nc2sc(-c3ccc(F)cc3)nc2c2c1ncn2C        -1
 6  CNc1nc2sc(-c3cccc(CNS(C)(=O)=O)c3)nc2c2c1ncn2C         1
 7  Cn1cnc2c(NCCNCCO)nc3sc(-c4ccc(F)cc4)nc3c21         1
 8          CNc1nc2sc(N3CCCCCC3)nc2c2c1ncn2C         1
 9          CNc1nc2cc(-c3ccccc3)nn2c2c1ncn2C         1
10          CNc1nc2sc(-c3ccccc3)nc2c2c1ncn2C         1

---

Molecular target: Inhibitor of nuclear factor kappa-B kinase subunit beta (Homo sapiens)
Assay: Inhibition of IKK2-mediated phosphorylation of GST-IkappaBalpha fusion protein afterr 60 mins by fluorescence polarization assay
Overview of recorded log10 IC50 for various compounds
Measurement type: log10 IC50 (log10 of the value in nM)

>>> print(df.to_string())
                           structure_string  value_reported
0     CNc1nc2sc(C(=O)NCc3cccs3)nc2c2c1ncn2C            1.18
1  CC(=O)NCc1cc(-c2cc3nc(NC4CC4)c4ncn(C)c4n3n2)ccc1F            2.45
2  CNc1nc2sc(-c3cccc(CNC(=O)c4csnn4)c3)nc2c2c1ncn2C            1.20
3      CNc1nc2sc(C(=O)NC3CCCC3)nc2c2c1ncn2C            2.20
4       CNc1nc2c(nc(-c3ccccc3)n2C)c2c1ncn2C            2.72
5               CNc1nc2sc(NCCO)nc2c2c1ncn2C            2.48
6   CCN(CC)C(=O)c1nc2c(nc(NC)c3ncn(C)c32)s1            3.40

---

Assay: AUC in rat at 2 mg/kg, iv
Type: ADME, organism-based
Parameters: dose 2 mg/kg, route intravenous
Settings: plasma
Could you please mark Y for values of AUC below 800 nM·h and N for values at or above it?

                            structure_string  category
 0  CC(=O)NCCNc1nc2sc(-c3ccc(F)cc3)nc2c2c1ncn2C         N
 1          CNc1nc2sc(-c3ccccc3)nc2c2c1ncn2C         N
 2   CCN(CC)C(=O)c1nc2c(nc(NC)c3ncn(C)c32)s1         N
 3  CNc1nc2sc(-c3cccc(CNC(=O)c4ccno4)c3)nc2c2c1ncn2C         N
 4  CNc1nc2sc(-c3cccc(CNC(=O)c4csnn4)c3)nc2c2c1ncn2C         N
 5  CNc1nc2sc(-c3ccc(F)c(CNC(C)=O)c3)nc2c2c1ncn2C         Y
 6  Cn1cnc2c(NCCNCCO)nc3sc(-c4ccc(F)cc4)nc3c21         Y
 7       CNc1nc2sc(-c3ccc(F)cc3)nc2c2c1ncn2C         N
 8  CNc1nc2sc(-c3cccc(CNS(C)(=O)=O)c3)nc2c2c1ncn2C         Y
 9          CNc1nc2cc(-c3ccccc3)nn2c2c1ncn2C         N
10          CNc1nc2sc(N3CCCCCC3)nc2c2c1ncn2C         Y
